Source listed as PubChem BioAssay.

The following molecules are listed with their measured inhibition values.
Test: endothelial E-selectin expression blockers – imaging, HUVEC, immunofluorescence, MLSMR starter and 10KST1 sets, primary screen (AID 487);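 note: signal is fraction of cell area covered by stained E-selectin grains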
Conditions: HUVEC TNFalpha-induced E-selectin immunofluorescence imaging, at 2 µM; active compounds read high
Measured Attribute: inhibition (%)

>>> experimental_value("CCOC(=O)CCc1c(C)nc2cc(-c3ccc(F)cc3)[nH]n2c1=O")
-8.7
>>> experimental_value("CC(=O)Nc1ccc(S(=O)(=O)NCC(C)NS(=O)(=O)c2ccc(NC(C)=O)cc2)cc1 (stereo not drawn)")
-204
>>> experimental_value("CC(C)Cn1c(CN(Cc2ccccc2)Cc2ccccc2)nc2c1c(=O)n(C)c(=O)n2C")
-12.8
>>> experimental_value("CCOc1ccccc1NC(=O)CC1Nc2cc(C)c(C)cc2NC1=O (stereo not drawn)")
-48.5
>>> experimental_value("Cc1nc2ccccn2c1/C(O)=C1\\C(=O)C(=O)N(CCCN(C)C)C1c1ccc(F)cc1 (stereo not drawn)")
-54.5
>>> experimental_value("COc1ccccc1Nc1nc(N)nc(-c2cc3ccccc3o2)n1")
25.7
>>> experimental_value("Cc1cnc(NC(=O)CSc2nnc(COc3c(C)cccc3C)o2)s1")
-22.4
>>> experimental_value("CCN(CC)CCN1C(=O)c2oc3ccc(F)cc3c(=O)c2C1c1ccncc1 (stereo not drawn)")
-5.7
>>> experimental_value("CN(C)CCCN1C(=O)C(=O)/C(=C(/O)c2ccncc2)C1c1cccc(Br)c1 (stereo not drawn)")
1.2
>>> experimental_value("COc1ccccc1N1CCN(C(=O)c2cc(C3CC3)on2)CC1")
1.1
>>> experimental_value("COc1ccc(C(=O)N2CCN(S(=O)(=O)c3cc(Cl)ccc3OC)CC2)cc1")
-74.2
>>> experimental_value("Cc1ccc(Cn2c(=N)c(C(=O)NCc3ccco3)cc3c(=O)n4ccccc4nc32)cc1")
-83
>>> experimental_value("O=C(OCC(=O)N1CCCCCC1)c1cccs1")
4.3
>>> experimental_value("CCOC(=O)N1CCC(N(CCCOC)C(=O)Nc2ccc(CC)cc2)CC1")
12.1
>>> experimental_value("COc1ccc(-n2ncc3c(NCCCN4CCOCC4)ncnc32)cc1")
1.8
>>> experimental_value("Cc1ccc2oc(=O)c3cnn(CC(=O)NCCC(C)C)c3c2c1")
-31.4
>>> experimental_value("Cc1ccc(-n2ncc3c(=O)n(CC(=O)N4CCCc5ccccc54)cnc32)cc1C")
9.3
>>> experimental_value("Cn1c(/C=N/n2cnnc2)nc2ccccc21")
-12.1
>>> experimental_value("Cc1cccc(NC2SC(=O)N(c3ccccc3)C2=O)c1 (stereo not drawn)")
26.4
>>> experimental_value("COc1ccc(N2Cc3ccccc3C2)cc1Cl")
-2
>>> experimental_value("O=c1[nH]c(SCc2ccccc2Cl)nc2c1CCCC2")
-49.4
>>> experimental_value("Fc1cccc(NCc2cn3ccccc3n2)c1")
-64.2
>>> experimental_value("COc1ccc(C)cc1NCc1cccc(OC)c1OC")
-41.1
